# ASSAY SUMMARY: NCI Yeast Anticancer Drug Screen. Data for the mlh1 rad18 strain (AID 175)
# STATED CONDITIONS: S. cerevisiae mlh1 rad18 strain growth inhibition; at 50.0 µM; hits give high values
This is part of a sample that, as a whole, favours compounds with a hit. Of some 79,000 tested, about 15% had one in any assay.
// growth inhibition lookup, one value per entry
Please respond with the number in % and leave the unit unwritten.

>>> test_result("O=c1[nH]c(=O)n(C2CC(O)C(CO)O2)cc1OC/C=C/Cc1ccccc1 (configuration not stated)")
-20.7
>>> test_result("Cc1cc(=O)oc2c(-c3ccccc3)nnc(Cl)c12")
40.5
>>> test_result("CCCCCCCCCCCCCCCCCC(=O)OCC(COC(C)=O)OC(C)=O (configuration not stated)")
4.8
>>> test_result("CSC1=N[C@H](c2ccccc2)CS1")
23.4
>>> test_result("CCOC(=O)C(=O)c1c(C)[nH]c(C)c1C(=O)OCC")
-9.1
>>> test_result("NS(=O)(=O)c1ccc(NC(=O)C2C(=O)N(c3ccc(S(N)(=O)=O)cc3)C(=O)/C2=N/O)cc1 (configuration not stated)")
33.1

Attention now shifts to the item below.
Consider the molecule shown here: `C(=N/Nc1ccncc1)/c1ccc2ccccc2n1` What is its recorded growth inhibition?
4.05
